# system: AHR (Homo sapiens)
# Sequence (P35869 11-848): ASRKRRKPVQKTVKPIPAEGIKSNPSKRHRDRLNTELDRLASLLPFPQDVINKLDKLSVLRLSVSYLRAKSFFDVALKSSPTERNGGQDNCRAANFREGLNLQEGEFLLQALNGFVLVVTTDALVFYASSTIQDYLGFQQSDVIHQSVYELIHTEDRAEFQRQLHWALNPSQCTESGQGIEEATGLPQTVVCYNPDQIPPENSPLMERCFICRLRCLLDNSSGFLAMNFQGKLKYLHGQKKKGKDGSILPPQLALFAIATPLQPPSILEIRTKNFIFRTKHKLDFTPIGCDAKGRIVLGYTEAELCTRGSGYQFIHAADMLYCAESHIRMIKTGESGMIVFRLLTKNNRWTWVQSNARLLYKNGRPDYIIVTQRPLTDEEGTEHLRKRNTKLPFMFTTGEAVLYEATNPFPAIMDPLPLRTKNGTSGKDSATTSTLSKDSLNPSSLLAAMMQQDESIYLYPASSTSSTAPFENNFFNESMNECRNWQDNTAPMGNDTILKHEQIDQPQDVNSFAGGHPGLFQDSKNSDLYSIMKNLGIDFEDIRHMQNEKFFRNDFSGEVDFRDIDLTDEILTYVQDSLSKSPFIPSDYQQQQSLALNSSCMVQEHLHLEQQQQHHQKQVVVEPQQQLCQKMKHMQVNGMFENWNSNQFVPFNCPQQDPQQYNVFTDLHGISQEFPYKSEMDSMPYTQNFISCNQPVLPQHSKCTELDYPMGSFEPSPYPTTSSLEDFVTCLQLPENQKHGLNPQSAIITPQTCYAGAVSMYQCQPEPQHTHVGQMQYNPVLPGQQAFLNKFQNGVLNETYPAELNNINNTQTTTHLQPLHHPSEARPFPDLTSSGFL
Consider the following compounds and their measured EC50 readings.
Number in µM, nothing else.

Examples with answers:
compound="O=C(O)/C=C/c1c[nH]c2ccccc12 [IAC, indole-3-acrylate]" system="AHR (Homo sapiens)" readout_name=EC50 observed_measurement=8.4
compound="O=C(O)CCc1c[nH]c2ccccc12 [IPA, indole-3-propionate]" system="AHR (Homo sapiens)" readout_name=EC50 observed_measurement=48.1

Shifting focus to the compound that follows.
# input compound: O=C(O)C(=O)Cc1c[nH]c2ccccc12 [IPY, indole-3-pyruvate] ; wanted: its EC50
24.4

---

# system: AHR (Homo sapiens, UniProt P35869)
# Sequence (P35869 11-848): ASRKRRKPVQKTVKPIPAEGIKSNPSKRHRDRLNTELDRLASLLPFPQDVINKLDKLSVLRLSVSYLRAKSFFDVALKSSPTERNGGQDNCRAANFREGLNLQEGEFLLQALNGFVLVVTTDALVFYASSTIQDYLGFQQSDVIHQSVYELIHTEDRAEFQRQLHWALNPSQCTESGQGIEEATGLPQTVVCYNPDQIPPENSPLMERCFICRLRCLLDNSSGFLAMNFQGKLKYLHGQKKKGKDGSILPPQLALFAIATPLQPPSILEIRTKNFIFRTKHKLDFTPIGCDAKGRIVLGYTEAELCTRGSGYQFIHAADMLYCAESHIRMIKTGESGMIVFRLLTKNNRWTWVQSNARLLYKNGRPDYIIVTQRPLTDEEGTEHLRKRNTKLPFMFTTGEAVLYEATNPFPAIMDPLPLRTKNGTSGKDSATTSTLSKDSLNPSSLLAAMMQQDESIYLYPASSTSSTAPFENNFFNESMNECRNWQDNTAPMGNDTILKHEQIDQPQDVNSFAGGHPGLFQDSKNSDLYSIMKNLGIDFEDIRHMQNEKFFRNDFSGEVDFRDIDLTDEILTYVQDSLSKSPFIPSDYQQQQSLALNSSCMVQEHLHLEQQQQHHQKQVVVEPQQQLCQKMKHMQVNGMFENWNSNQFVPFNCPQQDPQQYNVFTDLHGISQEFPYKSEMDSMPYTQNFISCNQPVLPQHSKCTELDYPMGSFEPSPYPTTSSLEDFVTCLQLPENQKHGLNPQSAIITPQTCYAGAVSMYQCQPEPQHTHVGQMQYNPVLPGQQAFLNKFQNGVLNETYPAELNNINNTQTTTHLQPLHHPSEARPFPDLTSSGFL
# test_summary: High-throughput AHR reporter gene assay in AZ-AHR cells;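 note: luciferase activity measured in lysed AZ-AHR reporter cells after 4 h compound exposure, with 0.1% DMSO as vehicle control and 5 nM TCDD as reference agonist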
# condition_set: AZ-AHR cells, 4 h
readout_name: efficacy class of AHR agonist based on magnitude of luciferase induction

Examples with answers:
compound=O=Cc1c[nH]c2ccccc12 observed_measurement=low
compound=Cc1c[nH]c2ccccc12 observed_measurement=medium
compound="O=C(O)/C=C/c1c[nH]c2ccccc12 [IAC, indole-3-acrylate]" observed_measurement=high
compound="O=C(O)C(=O)Cc1c[nH]c2ccccc12 [IPY, indole-3-pyruvate]" observed_measurement=high
compound=OCCc1c[nH]c2ccccc12 observed_measurement=medium

Shifting focus to the compound that follows.
# input compound: NC(=O)Cc1c[nH]c2ccccc12 [IAD, indole-3-acetamide] ; wanted: its efficacy class of AHR agonist based on magnitude of luciferase induction
high
